Every entry's value here was drawn from patent US20210300936A1.

A collection of compounds and their measured pKi
Target chain: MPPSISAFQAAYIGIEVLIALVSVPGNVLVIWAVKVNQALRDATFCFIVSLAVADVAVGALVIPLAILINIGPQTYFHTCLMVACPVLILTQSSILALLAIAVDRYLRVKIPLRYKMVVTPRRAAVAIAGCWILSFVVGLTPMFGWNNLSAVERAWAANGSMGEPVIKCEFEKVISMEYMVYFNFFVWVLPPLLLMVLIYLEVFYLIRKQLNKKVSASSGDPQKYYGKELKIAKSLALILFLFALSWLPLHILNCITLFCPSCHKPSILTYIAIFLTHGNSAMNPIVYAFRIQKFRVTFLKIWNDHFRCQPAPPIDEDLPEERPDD
Entry type: numeric. Quantity: pKi, the -log10 of concentration in molar units.

**Q:** Give a short answer stating reported pKi for COCCOc1ccc(N2CCN(C(=O)C(c3ccccc3)n3ncc4c3nc(N)n3nc(-c5ccco5)nc43)CC2)cc1 (single isomer, unassigned) [Compound A13a] .
**A:** 6.72

**Q:** Give a short answer stating reported pKi for COCCOc1ccc(N2CCN(C(=O)C(c3ccccc3)n3ncc4c3nc(N)n3nc(-c5ccco5)nc43)CC2)cc1 (single isomer, unassigned) [Compound A13b] .
**A:** 7.38

**Q:** Give a short answer stating reported pKi for CCCC(C(=O)N1CCN(c2ccc(OCCOC)cc2F)CC1)n1ncc2c1nc(N)n1nc(-c3ccco3)nc21 (single isomer, unassigned) [Compound A24a] .
**A:** 6.92

**Q:** Give a short answer stating reported pKi for CCCCC(C(=O)N1CCN(c2ccc(OCCOC)cc2)CC1)n1ncc2c1nc(N)n1nc(-c3ccco3)nc21 (single isomer, unassigned) [Compound A10a] .
**A:** 6.92

**Q:** Give a short answer stating reported pKi for CCCC(C(=O)N1CCN(c2ccc(OCCN(C)C)cc2)CC1)n1ncc2c1nc(N)n1nc(-c3ccco3)nc21 (single isomer, unassigned) [Compound A39b] .
**A:** 7.10

**Q:** Give a short answer stating reported pKi for COCCOc1ccc(N2CCN(C(=O)[C@@](C)(c3ccccc3)n3ncc4c3nc(N)n3nc(-c5ccco5)nc43)CC2)cc1 [Compound A63b] .
**A:** 6.82

**Q:** Give a short answer stating reported pKi for COCCOc1ccc(N2CCN(C(=O)[C@](C)(c3ccccc3)n3ncc4c3nc(N)n3nc(-c5ccco5)nc43)CC2)cc1 [Compound A63a] .
**A:** 5.95

**Q:** Give a short answer stating reported pKi for COCCOc1ccc(N2CCN(C(=O)C(c3ccccc3F)n3ncc4c3nc(N)n3nc(-c5ccco5)nc43)CC2)cc1 (single isomer, unassigned) [Compound A43b] .
**A:** 7.27

**Q:** Give a short answer stating reported pKi for CCCC(C(=O)N1CCN(c2ccc(OCCOC)cc2F)CC1)n1ncc2c1nc(N)n1nc(-c3ccco3)nc21 (single isomer, unassigned) [Compound A24b] .
**A:** 5.92

**Q:** Give a short answer stating reported pKi for CCCC(C(=O)N1CCN(c2ccc(OCCOC)cc2)CC1)n1ncc2c1nc(N)n1nc(-c3ccco3)nc21 (single isomer, unassigned) .
**A:** 6.51

###

Biological target: human A2A receptor (A2AR) (Homo sapiens, UniProt P29274)
Sequence (P29274 whole entry): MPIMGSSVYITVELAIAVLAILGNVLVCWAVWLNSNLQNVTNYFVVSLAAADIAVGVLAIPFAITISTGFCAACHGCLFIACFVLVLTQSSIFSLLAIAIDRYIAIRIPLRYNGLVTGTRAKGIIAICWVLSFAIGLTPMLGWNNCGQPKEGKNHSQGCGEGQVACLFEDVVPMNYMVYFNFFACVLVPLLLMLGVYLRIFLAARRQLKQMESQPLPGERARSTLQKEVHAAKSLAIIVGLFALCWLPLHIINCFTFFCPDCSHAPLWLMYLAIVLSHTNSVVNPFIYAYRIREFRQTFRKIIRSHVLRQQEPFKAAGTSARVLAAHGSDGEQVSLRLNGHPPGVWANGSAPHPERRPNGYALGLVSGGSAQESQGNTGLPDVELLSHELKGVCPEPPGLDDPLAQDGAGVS
Assay: Luciferase reporter assay (HEK293-A2AR-luc2p/CRE/Hygro cells, 3 nM CGS21680)
Conditions: 3 nM CGS21680, 5 h incubation
PARAMETER: IC50 (nM)
Numbers only; they are read as nM.

**Q:** Give a short answer stating reported IC50 for CC(C(=O)N1CCC1)(c1ccccc1)n1ncc2c1nc(N)n1nc(-c3ccco3)nc21 (stereo not shown) .
**A:** 12
